Target: UniProt P29274
Sequence (P29274 whole entry): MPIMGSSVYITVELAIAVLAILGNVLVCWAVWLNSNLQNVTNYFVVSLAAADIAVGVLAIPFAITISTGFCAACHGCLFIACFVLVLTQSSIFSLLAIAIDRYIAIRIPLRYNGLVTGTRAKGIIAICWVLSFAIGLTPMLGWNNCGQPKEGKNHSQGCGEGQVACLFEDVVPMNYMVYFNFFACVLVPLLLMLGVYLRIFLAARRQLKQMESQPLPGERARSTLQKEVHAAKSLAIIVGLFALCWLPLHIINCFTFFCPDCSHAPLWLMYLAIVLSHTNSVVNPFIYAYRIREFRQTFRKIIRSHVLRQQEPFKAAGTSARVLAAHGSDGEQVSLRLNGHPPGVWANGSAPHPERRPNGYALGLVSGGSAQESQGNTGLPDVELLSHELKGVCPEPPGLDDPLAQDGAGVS
Test: Displacement of [3H]-SCH- 58261 from human adenosine A2A receptor expressed in CHO cells; range 70-130
Type: cell-based
parameterMeasured: pKi
Note on units: pKi is unitless, being -log10 of a concentration expressed in mol/L.

Query: Give its pKi value. Item: CCCCn1cc2c(nc(NC(=O)Nc3cccc(Cl)c3)n3nc(-c4ccco4)nc23)n1
Result: 7.02

###

Molecular target: Adenosine receptor A3 (Homo sapiens, UniProt P0DMS8)
Sequence (P0DMS8 whole entry): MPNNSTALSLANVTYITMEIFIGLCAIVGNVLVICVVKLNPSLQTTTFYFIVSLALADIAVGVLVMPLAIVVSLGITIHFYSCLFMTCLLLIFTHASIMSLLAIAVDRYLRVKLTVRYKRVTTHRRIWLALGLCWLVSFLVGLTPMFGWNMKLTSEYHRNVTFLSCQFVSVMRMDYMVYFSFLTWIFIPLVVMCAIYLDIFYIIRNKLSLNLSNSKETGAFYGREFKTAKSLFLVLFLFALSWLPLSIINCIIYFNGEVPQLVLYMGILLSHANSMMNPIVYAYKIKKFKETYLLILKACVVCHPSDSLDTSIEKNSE
Assay: biochemical
parameterMeasured: pKi
Note on units: pKi is unitless, being -log10 of a concentration expressed in mol/L.

Query: Give its pKi value. Item: CCCn1cc2c(nc(N)n3nc(-c4ccco4)nc23)n1
Result: 6.39
